# System: Plasmodium falciparum
# assay info: Antiplasmodial activity against chloroquine-resistant Plasmodium falciparum K1 infected in human erythrocytes after 48 hrs assessed as [3H]hypoxanthine incorporation by liquid scintillation counting
# Assay type: functional, organism-based
measured endpoint: IC50 (µM)

[[record]]
cpd_smiles = "COc1cc(C2=NCCN2)ccc1-c1cn(-c2ccc(C3=NCCN3)cc2)nn1"
observed_measurement = 0.011

[[record]]
cpd_smiles = "CC(C)NC(=N)c1cccc(-n2cc(-c3cc(C(=N)NC(C)C)ccc3O)nn2)c1"
observed_measurement = 0.229

[[record]]
cpd_smiles = "COc1ccc(C(=N)NC(C)C)cc1-n1cc(-c2ccc(C(=N)NC(C)C)cc2)nn1"
observed_measurement = 0.195

[[record]]
cpd_smiles = "Cl.Cl.Oc1ccc(C2=NCCN2)cc1-c1cn(-c2ccc(C3=NCCN3)cc2)nn1"
observed_measurement = 0.009

[[record]]
cpd_smiles = "Cl.Cl.N=C(N)c1ccc(-n2cc(-c3ccc(C(=N)N)cc3O)nn2)cc1"
observed_measurement = 0.002

[[record]]
cpd_smiles = "Oc1ccc(C2=NCCN2)cc1-n1cc(-c2cccc(C3=NCCN3)c2)nn1"
observed_measurement = 0.325

[[record]]
cpd_smiles = "CC(C)NC(=N)c1ccc(-c2cn(-c3ccc(C(=N)NC(C)C)cc3)nn2)cc1.Cl.Cl"
observed_measurement = 0.005

[[record]]
cpd_smiles = "CC(C)NC(=N)c1ccc(-n2cc(-c3ccc(C(=N)NC(C)C)cc3O)nn2)cc1.Cl.Cl"
observed_measurement = 0.007

[[record]]
cpd_smiles = "COc1ccc(C(=N)N)cc1-c1cn(-c2cccc(C(=N)N)c2)nn1"
observed_measurement = 0.024

[[record]]
cpd_smiles = "COc1ccc(C2=NCCN2)cc1-n1cc(-c2ccc(C3=NCCN3)cc2)nn1"
observed_measurement = 0.022

[[record]]
cpd_smiles = "c1cc(C2=NCCN2)cc(-c2cn(-c3ccc(C4=NCCN4)cc3)nn2)c1"
observed_measurement = 0.084

[[record]]
cpd_smiles = "CC(C)NC(=N)c1cccc(-c2cn(-c3ccc(C(=N)NC(C)C)cc3O)nn2)c1"
observed_measurement = 1.19

[[record]]
cpd_smiles = "c1cc(C2=NCCN2)cc(-n2cc(-c3ccc(C4=NCCN4)cc3)nn2)c1"
observed_measurement = 0.095

[[record]]
cpd_smiles = "COc1cc(C(=N)NC(C)C)ccc1-n1cc(-c2ccc(C(=N)NC(C)C)cc2)nn1"
observed_measurement = 0.019

[[record]]
cpd_smiles = "CC(C)NC(=N)c1cccc(-c2cn(-c3cccc(C(=N)NC(C)C)c3)nn2)c1"
observed_measurement = 0.118

[[record]]
cpd_smiles = "N=C(N)c1ccc(-c2cn(-c3ccc(C(=N)N)cc3O)nn2)cc1"
observed_measurement = 0.17

[[record]]
cpd_smiles = "COc1ccc(C(=N)N)cc1-n1cc(-c2ccc(C(=N)N)cc2)nn1.Cl.Cl"
observed_measurement = 0.017

[[record]]
cpd_smiles = "Cl.Cl.c1cc(-c2cn(-c3ccc(C4=NCCN4)cc3)nn2)ccc1C1=NCCN1"
observed_measurement = 0.002

[[record]]
cpd_smiles = "N=C(N)c1ccc(-c2cn(-c3cc(C(=N)N)ccc3O)nn2)cc1"
observed_measurement = 1.23

[[record]]
cpd_smiles = "COc1ccc(C2=NCCN2)cc1-n1cc(-c2cccc(C3=NCCN3)c2)nn1"
observed_measurement = 0.03


* * *

# Test system: L6
# assay info: Cytotoxicity against rat L6 cells after 70 hrs by alamar blue assay
# Format: cell-based
# cond: L6, 70 h
measured endpoint: IC50

[[record]]
cpd_smiles = "CC(C)NC(=N)c1ccc(-n2cc(-c3cc(C(=N)NC(C)C)ccc3O)nn2)cc1.Cl"
measured_endpoint = "IC50"
observed_measurement = "> 179 µM"

[[record]]
cpd_smiles = "Oc1ccc(C2=NCCN2)cc1-c1cn(-c2cccc(C3=NCCN3)c2)nn1"
measured_endpoint = "IC50"
observed_measurement = "> 183 µM"

[[record]]
cpd_smiles = "COc1cc(C2=NCCN2)ccc1-c1cn(-c2cccc(C3=NCCN3)c2)nn1"
measured_endpoint = "IC50"
observed_measurement = "> 172 µM"

[[record]]
cpd_smiles = "CC(C)NC(=N)c1cccc(-n2cc(-c3ccc(C(=N)NC(C)C)cc3O)nn2)c1.Cl.Cl"
measured_endpoint = "IC50"
observed_measurement = "> 175 µM"

[[record]]
cpd_smiles = "CC(C)NC(=N)c1ccc(-c2cn(-c3cc(C(=N)NC(C)C)ccc3O)nn2)cc1"
measured_endpoint = "IC50"
observed_measurement = "> 170 µM"

[[record]]
cpd_smiles = "CC(C)NC(=N)c1ccc(-n2cc(-c3cccc(C(=N)NC(C)C)c3)nn2)cc1"
measured_endpoint = "IC50"
observed_measurement = "> 190 µM"

[[record]]
cpd_smiles = "COc1ccc(C2=NCCN2)cc1-n1cc(-c2cccc(C3=NCCN3)c2)nn1"
measured_endpoint = "IC50"
observed_measurement = "> 172 µM"

[[record]]
cpd_smiles = "Oc1cc(C2=NCCN2)ccc1-n1cc(-c2cccc(C3=NCCN3)c2)nn1"
measured_endpoint = "IC50"
observed_measurement = "> 187 µM"

[[record]]
cpd_smiles = "COc1cc(C(=N)NC(C)C)ccc1-n1cc(-c2ccc(C(=N)NC(C)C)cc2)nn1"
measured_endpoint = "IC50"
observed_measurement = "> 164 µM"

[[record]]
cpd_smiles = "COc1ccc(C(=N)N)cc1-n1cc(-c2ccc(C(=N)N)cc2)nn1.Cl.Cl"
measured_endpoint = "IC50"
observed_measurement = "> 201 µM"


* * *

# Tested on: Plasmodium falciparum
# assay info: Antiplasmodial activity against chloroquine-resistant Plasmodium falciparum K1 infected in human erythrocytes after 48 hrs assessed as [3H]hypoxanthine incorporation by liquid scintillation counting
# Format: functional, organism-based
measured endpoint: IC50 (nM)

[[record]]
cpd_smiles = "Cl.Cl.Oc1cc(C2=NCCN2)ccc1-c1cn(-c2ccc(C3=NCCN3)cc2)nn1"
observed_measurement = 0.6

[[record]]
cpd_smiles = "CC(C)NC(=N)c1cccc(-n2cc(-c3ccc(C(=N)NC(C)C)cc3O)nn2)c1.Cl.Cl"
observed_measurement = 49

[[record]]
cpd_smiles = "COc1ccc(C(=N)NC(C)C)cc1-n1cc(-c2cccc(C(=N)NC(C)C)c2)nn1"
observed_measurement = 125

[[record]]
cpd_smiles = "Oc1cc(C2=NCCN2)ccc1-n1cc(-c2cccc(C3=NCCN3)c2)nn1"
observed_measurement = 159

[[record]]
cpd_smiles = "COc1ccc(C(=N)N)cc1-c1cn(-c2ccc(C(=N)N)cc2)nn1.Cl.Cl"
observed_measurement = 7

[[record]]
cpd_smiles = "COc1ccc(C(=N)NC(C)C)cc1-c1cn(-c2cccc(C(=N)NC(C)C)c2)nn1"
observed_measurement = 106

[[record]]
cpd_smiles = "CC(C)NC(=N)c1ccc(-n2cc(-c3cc(C(=N)NC(C)C)ccc3O)nn2)cc1.Cl"
observed_measurement = 28

[[record]]
cpd_smiles = "Oc1ccc(C2=NCCN2)cc1-c1cn(-c2cccc(C3=NCCN3)c2)nn1"
observed_measurement = 52

[[record]]
cpd_smiles = "COc1ccc(C2=NCCN2)cc1-c1cn(-c2cccc(C3=NCCN3)c2)nn1.Cl.Cl"
observed_measurement = 14


* * *

# Tested on: Leishmania donovani
# assay info: Antileishmanial activity against Leishmania donovani MHOM/SD/62/1S-CL2D
# Format: functional, organism-based
measured endpoint: IC50

[[record]]
cpd_smiles = "CC(C)NC(=N)c1ccc(-c2cn(-c3ccc(C(=N)NC(C)C)cc3O)nn2)cc1"
measured_endpoint = "IC50"
observed_measurement = "> 100 µM"

[[record]]
cpd_smiles = "COc1cc(C(=N)N)ccc1-n1cc(-c2ccc(C(=N)N)cc2)nn1.Cl.Cl"
measured_endpoint = "IC50"
observed_measurement = "> 40 µM"

[[record]]
cpd_smiles = "CC(C)NC(=N)c1cccc(-n2cc(-c3cc(C(=N)NC(C)C)ccc3O)nn2)c1"
measured_endpoint = "IC50"
observed_measurement = "> 100 µM"

[[record]]
cpd_smiles = "CC(C)NC(=N)c1ccc(-c2cn(-c3cccc(C(=N)NC(C)C)c3)nn2)cc1"
measured_endpoint = "IC50"
observed_measurement = "58 µM"

[[record]]
cpd_smiles = "N=C(N)c1ccc(-c2cn(-c3ccc(C(=N)N)cc3O)nn2)cc1"
measured_endpoint = "IC50"
observed_measurement = "> 100 µM"

[[record]]
cpd_smiles = "COc1cc(C2=NCCN2)ccc1-n1cc(-c2cccc(C3=NCCN3)c2)nn1"
measured_endpoint = "IC50"
observed_measurement = "> 100 µM"

[[record]]
cpd_smiles = "COc1cc(C(=N)N)ccc1-c1cn(-c2ccc(C(=N)N)cc2)nn1.Cl.Cl"
measured_endpoint = "IC50"
observed_measurement = "13 µM"

[[record]]
cpd_smiles = "COc1ccc(C(=N)NC(C)C)cc1-c1cn(-c2ccc(C(=N)NC(C)C)cc2)nn1"
measured_endpoint = "IC50"
observed_measurement = "> 100 µM"

[[record]]
cpd_smiles = "COc1cc(C2=NCCN2)ccc1-n1cc(-c2ccc(C3=NCCN3)cc2)nn1"
measured_endpoint = "IC50"
observed_measurement = "> 100 µM"

[[record]]
cpd_smiles = "Cl.Cl.N=C(N)c1cccc(-c2cn(-c3ccc(C(=N)N)cc3O)nn2)c1"
measured_endpoint = "IC50"
observed_measurement = "> 100 µM"

[[record]]
cpd_smiles = "COc1cc(C(=N)N)ccc1-n1cc(-c2cccc(C(=N)N)c2)nn1.Cl.Cl"
measured_endpoint = "IC50"
observed_measurement = "33 µM"

[[record]]
cpd_smiles = "Cl.Cl.N=C(N)c1cccc(-n2cc(-c3ccc(C(=N)N)cc3O)nn2)c1"
measured_endpoint = "IC50"
observed_measurement = "8 µM"

[[record]]
cpd_smiles = "CC(C)NC(=N)c1cccc(-c2cn(-c3cccc(C(=N)NC(C)C)c3)nn2)c1"
measured_endpoint = "IC50"
observed_measurement = "> 100 µM"

[[record]]
cpd_smiles = "c1cc(C2=NCCN2)cc(-n2cc(-c3ccc(C4=NCCN4)cc3)nn2)c1"
measured_endpoint = "IC50"
observed_measurement = "> 100 µM"

[[record]]
cpd_smiles = "CC(C)NC(=N)c1cccc(-c2cn(-c3cc(C(=N)NC(C)C)ccc3O)nn2)c1"
measured_endpoint = "IC50"
observed_measurement = "> 100 µM"

[[record]]
cpd_smiles = "CC(C)NC(=N)c1ccc(-c2cn(-c3ccc(C(=N)NC(C)C)cc3)nn2)cc1.Cl.Cl"
measured_endpoint = "IC50"
observed_measurement = "25 µM"

[[record]]
cpd_smiles = "Oc1cc(C2=NCCN2)ccc1-c1cn(-c2cccc(C3=NCCN3)c2)nn1"
measured_endpoint = "IC50"
observed_measurement = "> 100 µM"

[[record]]
cpd_smiles = "CC(C)NC(=N)c1cccc(-n2cc(-c3ccc(C(=N)NC(C)C)cc3O)nn2)c1.Cl.Cl"
measured_endpoint = "IC50"
observed_measurement = "> 100 µM"

[[record]]
cpd_smiles = "Cl.Cl.N=C(N)c1ccc(-c2cn(-c3ccc(C(=N)N)cc3)nn2)cc1"
measured_endpoint = "IC50"
observed_measurement = "9.1 µM"

[[record]]
cpd_smiles = "CC(C)NC(=N)c1ccc(-n2cc(-c3cccc(C(=N)NC(C)C)c3)nn2)cc1"
measured_endpoint = "IC50"
observed_measurement = "> 100 µM"

